# System: MALME-3M melanoma
# protocolSummary: NCI-60 one-dose screen, 48 h (100 = growth as untreated, 0 = no growth, -100 = all killed)
# experimentalParameters: 10 µM unless noted
The panel holds about 83,000 compounds, 20% with a hit somewhere; the sample as a whole holds those more often.
Some compounds, each annotated with its measured growth.

{"columns": ["compound", "assayedTarget", "unitDescriptor", "growth"],
 "data": [
  ["COc1ccc(-c2ccnc(SCc3cc4cc(OC)ccc4[nH]c3=O)n2)cc1", "MALME-3M melanoma", "%", 36.7],
  ["Cc1ccc(C(=O)C(c2c[nH]c3ccccc23)c2c[nH]c3ccccc23)cc1", "MALME-3M melanoma", "%", 72.6],
  ["CSc1ccc(C(=O)Nc2ccc3nn(/C(C#N)=C/c4ccccn4)nc3c2)cc1", "MALME-3M melanoma", "%", -82.1],
  ["CC1=C(C#N)C2=NNCC(c3ccccc3)=NN2C(c2ccccc2)=C1", "MALME-3M melanoma", "%", 93.3],
  ["Clc1ccc(-c2ccc(OCCCN3CCN(c4ccncc4)CC3)cc2)cc1", "MALME-3M melanoma", "%", 84.2],
  ["Cc1ccc([C@H]2C(C(=O)c3ccc(Cl)cc3)C3(N[C@@H]2c2ccccc2)C(=O)Nc2ccc(Cl)cc23)cc1 (some centres undefined)", "MALME-3M melanoma", "%", 87.2],
  ["CC12CC[C@@H]3[C@]4(C)COC(c5cn[nH]c5-c5ccc(Cl)cc5)O[C@@H]4CC[C@@]3(C)[C@@H]1CC(C1=CCOC1=O)O2 (some centres undefined)", "MALME-3M melanoma", "%", 58],
  ["O=C(N=Nc1c(O)[nH]c2ccc(Cl)cc12)c1ccc2nc(-c3ccccc3)[nH]c2c1", "MALME-3M melanoma", "%", 8.71],
  ["O=C(/C=C/c1ccc(-c2ccccc2)cc1)c1nc2ccccc2n1Cc1ccc(Br)cc1", "MALME-3M melanoma", "%", 44],
  ["C=C1CC[C@@H]2[C@]3(C)COC(c4cn[nH]c4-c4cccc(Cl)c4)O[C@@H]3CC[C@@]2(C)[C@@H]1C/C=C1/C(=O)OCC1O (some centres undefined)", "MALME-3M melanoma", "%", -50.7],
  ["COc1cc2c(c(OC)c1OC)C(=O)CC(c1cccc(NC(=O)c3cccc(NC(=O)[C@H](C)NC(=O)OC(C)(C)C)c3)c1)O2 (some centres undefined)", "MALME-3M melanoma", "%", 70.3],
  ["Cc1ccc(-c2nnc3ccc(N/N=C/c4ccccc4)nn23)cc1", "MALME-3M melanoma", "%", 95.6],
  ["COc1ccccc1/C=C/C(=O)c1ccc(OC)c(S(N)(=O)=O)c1", "MALME-3M melanoma", "%", 50],
  ["C=C1CC[C@@H]2[C@]3(C)COC(c4cn[nH]c4-c4ccc(Br)cc4)O[C@@H]3CC[C@@]2(C)[C@@H]1C/C=C1/C(=O)OCC1O (some centres undefined)", "MALME-3M melanoma", "%", -70.7],
  ["Cc1ccc(Cc2cnc(NC(=O)c3ccc(/C=C4\\SC(=S)N(C)C4=O)cc3)s2)cc1", "MALME-3M melanoma", "%", 25.2],
  ["COc1cccc(COc2ccc(NC(=O)Nc3ccc(Cl)c(C(F)(F)F)c3)cc2)c1", "MALME-3M melanoma", "%", 1.5],
  ["COc1cc(OC)c2c3nc4cc(C)c(C)cc4nc3n(CCN(C)C)c2c1", "MALME-3M melanoma", "%", -36.1],
  ["Cn1cc(-c2cc(N)n3nc(-c4cn(C)c5ccc(Cl)cc45)cc3n2)c2ccccc21", "MALME-3M melanoma", "%", 104],
  ["C=C1CC[C@@H]2[C@]3(C)COC(c4ccco4)O[C@@H]3CC[C@@]2(C)[C@@H]1C/C=C1/C(=O)OCC1OC(C)=O (some centres undefined)", "MALME-3M melanoma", "%", -60.3]
]}

Hello, the source for this data is PubChem BioAssay (NCI), in case you need it.
